So I've got a bunch of compounds here, and I need their MIC values.
# Tested on: Salmonella enterica subsp. enterica
# measurement description: Antimicrobial activity against multidrug-resistant Salmonella enterica Serovar Typhi isolate BL 21095 harboring DNA gyrase A S83F mutation by disk diffusion method in presence of plasmid mediated quinolone-resistant gene qnrA and qnrS
# Type: functional, Salmonella enterica subsp. enterica serovar Typhi
All answers are understood in µg/mL, so give the number only.

Simply: `O=C(O)c1cn(C2CC2)c2cc(N3CCNCC3)c(F)cc2c1=O` , Salmonella enterica subsp. enterica, MIC = 0.25

Per the reported Salmonella enterica subsp. enterica data, CC1COc2c(N3CCN(C)CC3)c(F)cc3c(=O)c(C(=O)O)cn1c23 (centres undefined) has MIC of 0.5

Let me check: COc1c(N2CCNC(C)C2)c(F)cc2c(=O)c(C(=O)O)cn(C3CC3)c12 (centres undefined) , system Salmonella enterica subsp. enterica, measured MIC is 0.19
